# Target Desc: Voltage-gated potassium channel subunit beta-2 (Rattus norvegicus)
# Protocol Notes: inhibitors of rat Kvbeta2 reductase activity – biochemical, NADPH fluorescence, primary screen (AID 622);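 note: slope of raw intensity against log time taken from 70 to 1610 s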
# Conditions: recombinant KvBeta, 4-cyanobenzaldehyde reduction, at 10 µM, stronger effect = higher value
Readout Kind: fluorescence slope
Just the number, please, no unit after it.

Some solved entries appear below for comparison.
- Compound: "O=c1[nH]c(=O)n(C2CCCCC2)c(O)c1C=NCCCn1ccnc1"
  Readout Kind: "fluorescence slope"
  Test Result: -0.428
- Compound: "COC(=O)C(c1ccccc1)N1CCCCCC1 (stereo not given)"
  Readout Kind: "fluorescence slope"
  Test Result: -0.406
- Compound: "CCOc1ccc(Br)c(C2(O)CC(C)N(C)CC2C)c1 (stereo not given)"
  Readout Kind: "fluorescence slope"
  Test Result: -0.398
- Compound: "Cc1cnn(C2CCN(C)CC2)c1N"
  Readout Kind: "fluorescence slope"
  Test Result: -0.495
- Compound: "Cc1nc2ccccc2c(=O)n1-c1ccc(F)cc1"
  Readout Kind: "fluorescence slope"
  Test Result: -0.456
- Compound: "CCN(CC)CCN=Cc1c(O)n(CCc2ccccc2)c(=O)[nH]c1=O"
  Readout Kind: "fluorescence slope"
  Test Result: -0.368
- Compound: "COc1cc(/C=N/n2cnnc2)ccc1OC(=O)N(C)C"
  Readout Kind: "fluorescence slope"
  Test Result: -0.436
- Compound: "Cc1cccc(N2CCc3c2nc2ccccc2c3N)c1"
  Readout Kind: "fluorescence slope"
  Test Result: -0.113

**Query** So what does the record say about fluorescence slope for NCC(CC(=O)O)c1ccc(Cl)cc1 (stereo not given) ?
**Result** -0.448

**Query** Quick check: fluorescence slope of Cc1ccc(O)c(CN2CCN(c3ccccc3)CC2)c1 ?
**Result** -0.202
